- Tested on: Saccharomyces cerevisiae
- TEST METHOD NOTES: protein stability index of tFT-peptide fusion (C-terminal peptide) (PSI (0-1 scale)); higher = more stable (slower turnover)
- ASSAY CONDITIONS: genetic background: wild type; temperature: 30 C
Returns yes if the recorded protein stability index is greater than or equal to 0.7, and no otherwise.

INSERT INTO assay_data (sequence, class_label) VALUES
  ('VLSLPLPSLSLN', 'yes'),
  ('CFGFVRSLGWWG', 'no'),
  ('RLGNVGVGVGVG', 'no'),
  ('WVFRHSTMNNEN', 'no'),
  ('VSVSDSKMARLG', 'no'),
  ('MAMMQTILIIIH', 'no'),
  ('ALCQEFAALEPR', 'yes'),
  ('LSCFVFRLSWFL', 'no'),
  ('HITTNHLPTSCD', 'yes'),
  ('RYPSAPPKISAS', 'no'),
  ('GRGGEVALWRGV', 'no'),
  ('EIKGTQRKGGKR', 'yes'),
  ('PVLGRTLAFRSL', 'no'),
  ('VSYEGIVKDGSG', 'no'),
  ('PPPFPPPPARSL', 'no'),
  ('FFGVLFRVSLFF', 'no'),
  ('GCGGSREAVVNG', 'no'),
  ('WVCRGSSLKSSI', 'no'),
  ('PPLGPRALPSPA', 'no');

====

- Test system: Saccharomyces cerevisiae
- TEST METHOD NOTES: protein stability index of tFT-peptide fusion (C-terminal peptide) (PSI (0-1 scale)); higher = more stable (slower turnover)
- ASSAY CONDITIONS: genetic background: das1 deletion; temperature: 30 C
Item-by-item account of protein stability index
RESULT TYPE: protein stability index

INSERT INTO measurements (sequence, subject_of_test, result_type, recorded_value) VALUES
  ('DDNEPDEEANRA [RXT2 C-terminal 12 aa]', 'Saccharomyces cerevisiae', 'protein stability index', 0.672),
  ('PMIENLRFPNAR [YEH2 C-terminal 12 aa]', 'Saccharomyces cerevisiae', 'protein stability index', 0.688),
  ('GYQRGLDEFNKY [MRX18 C-terminal 12 aa]', 'Saccharomyces cerevisiae', 'protein stability index', 0.715),
  ('LALNRDDPPDML [PEA2 C-terminal 12 aa]', 'Saccharomyces cerevisiae', 'protein stability index', 0.699),
  ('KMDKRAKTSDSA [RPL8B C-terminal 12 aa]', 'Saccharomyces cerevisiae', 'protein stability index', 0.698),
  ('FAAPIKPSTRAG [YLR347W-A C-terminal 12 aa]', 'Saccharomyces cerevisiae', 'protein stability index', 0.688),
  ('TFFDIRQKFVVV [BOP2 C-terminal 12 aa]', 'Saccharomyces cerevisiae', 'protein stability index', 0.493),
  ('DLEEAANKAQPQ [YLR257W C-terminal 12 aa]', 'Saccharomyces cerevisiae', 'protein stability index', 0.699),
  ('TQLVQKALERFK [RIC1 C-terminal 12 aa]', 'Saccharomyces cerevisiae', 'protein stability index', 0.734),
  ('SVTSKFKKYPYK [BET2 C-terminal 12 aa]', 'Saccharomyces cerevisiae', 'protein stability index', 0.713),
  ('QCPVCRSPLPPL [TUL1 C-terminal 12 aa]', 'Saccharomyces cerevisiae', 'protein stability index', 0.714),
  ('LEELDIEEEYSD [ACL4 C-terminal 12 aa]', 'Saccharomyces cerevisiae', 'protein stability index', 0.687),
  ('PFKERAVFLLVL [YDR524W-C C-terminal 12 aa]', 'Saccharomyces cerevisiae', 'protein stability index', 0.523),
  ('VVYRHLHTKVSK [HAL5 C-terminal 12 aa]', 'Saccharomyces cerevisiae', 'protein stability index', 0.682),
  ('FLIWRKKVSRNK [YOR329W-A C-terminal 12 aa]', 'Saccharomyces cerevisiae', 'protein stability index', 0.73),
  ('FDELVRKYDTSN [SEC28 C-terminal 12 aa]', 'Saccharomyces cerevisiae', 'protein stability index', 0.718),
  ('SKDLGNVLTNLL [ESF2 C-terminal 12 aa]', 'Saccharomyces cerevisiae', 'protein stability index', 0.69),
  ('HERKRNKVLNTT [CMR3 C-terminal 12 aa]', 'Saccharomyces cerevisiae', 'protein stability index', 0.704),
  ('IWKEVKRHQDFA [ATG20 C-terminal 12 aa]', 'Saccharomyces cerevisiae', 'protein stability index', 0.723),
  ('EYGGYGEYGNGS [RTG1 C-terminal 12 aa]', 'Saccharomyces cerevisiae', 'protein stability index', 0.695),
  ('FTGGDILPPEFN [SPS18 C-terminal 12 aa]', 'Saccharomyces cerevisiae', 'protein stability index', 0.764),
  ('KQPRFQLLFEFS [TTI2 C-terminal 12 aa]', 'Saccharomyces cerevisiae', 'protein stability index', 0.687);

Hello, the source for this data is the supplement of paper PMC10724198, in case you need it.
